All values here come from PubChem BioAssay (Tox21).

test details: qHTS assay to identify small molecule antagonists of the retinoid-related orphan receptor gamma (ROR-gamma) signaling pathway - cell viability counter screen (AID 1159520); note: % is set by controls: 0 for no effect and ±100 for the full control effect; nearly all actives have a fitted effect of over 50% in size
condition info: Tet-on RORgamma CHO cells viability, ATP luminescence, 16 h; series mostly up to 92.4 µM
Results filed as inconclusive are left out. Active and inactive are the calls of the source. Calls come from the whole dose curve; as a rule, active = well fitted cell-killing curve with a large enough effect in the repeat runs; inconclusive = weak or mixed curves, or effect the other way; inactive = no such curve, though single readings can be large or run the other way.
measured quantity: activity, negative = cytotoxicity

- compound: "C=CCCCCCCCCCCC"
  measured quantity: "activity, negative = cytotoxicity"
  value measured: "3.91% [at 8.39 µM] (inactive)"
- compound: "CCN(Cc1cccc(S(=O)(=O)O)c1)c1ccccc1"
  measured quantity: "activity, negative = cytotoxicity"
  value measured: "inactive"
- compound: "FC(F)(F)/C(=N\\OCC1OCCO1)c1ccc(Cl)cc1"
  measured quantity: "activity, negative = cytotoxicity"
  value measured: "inactive"
- compound: "COC(OC)C(C)c1ccccc1 (stereo not given)"
  measured quantity: "activity, negative = cytotoxicity"
  value measured: "inactive"

*Q* Consider the compound shown here: C[C@H]1O[C@H](O[C@H]2[C@H](O)[C@@H](O)[C@@H](O[C@H]3[C@H](O)[C@@H](O)[C@H](O)O[C@@H]3CO)O[C@@H]2CO)[C@H](O)[C@@H](O)[C@@H]1N[C@H]1C=C(CO)[C@@H](O)[C@H](O)[C@H]1O What is its recorded activity, negative = cytotoxicity?
*A* inactive

###

subject of test: Progesterone receptor (Homo sapiens)
test details: qHTS assay to identify small molecule agonists of the progesterone receptor (PR) signaling pathway (AID 1346784); note: % is set by controls: 0 for no effect and ±100 for the full control effect; nearly all actives have a fitted effect of over 30% in size
condition info: PR-UAS-bla HEK293T, beta-lactamase FRET ratio, 16 h; series mostly up to 92.4 µM
Records with an inconclusive call do not appear. The source made the active and inactive calls. Calls follow the shape of the full dose curve.
Write down one outcome, taken from 1 (yes) (active), 0 (no) (inactive)

Completed entries (count: 5):
- molecule: "CC(C)(c1ccc(Oc2ccc3c(c2)C(=O)OC3=O)cc1)c1ccc(Oc2ccc3c(c2)C(=O)OC3=O)cc1"
  assigned category: "0 (no)"
- molecule: "CC(CC(=O)O)CC(C)(C)C (stereo unspecified)"
  assigned category: "0 (no)"
- molecule: "Nc1cc(Cl)cc(S(=O)(=O)O)c1O"
  assigned category: "0 (no)"
- molecule: "C[C@H](CCC(=O)O)[C@H]1CC[C@H]2[C@@H]3[C@H](O)C[C@@H]4C[C@H](O)CC[C@]4(C)[C@H]3C[C@H](O)[C@]12C"
  assigned category: "0 (no)"
- molecule: "C=CCOCC(CO)(COCC=C)COCC=C"
  assigned category: "0 (no)"

// next entry
*Q* Which outcome was entered for the molecule Cn1c(=O)c2c(ncn2CC2OCCO2)n(C)c1=O in this test?
*A* 0 (no)

###

test details: qHTS assay to identify small molecule antagonists of the retinoid acid receptor (RAR) signaling pathway - cell viability counter screen (AID 1159551); note: % is set by controls: 0 for no effect and ±100 for the full control effect; nearly all actives have a fitted effect of over 35% in size
condition info: C3RL4 cells viability, ATP luminescence (CellTiter-Glo), 6 h; series mostly up to 92.4 µM
Method: U.S. Tox21 Program National Center for Advancing Translational Sciences [NCATS] NIH Chemical Genomics Center [NCGC] U.S. Environmental Protection Agency [EPA] National Institutes of Environmental Health Sciences [NIEHS] National Toxicology Program [NTP] U.S. Food and Drug Administration [FDA] […] Also cytotoxicity was assessed by determining the viability of cells based on the quantitation of ATP. […]
Records with an inconclusive call do not appear. The source made the active and inactive calls. Calls follow the shape of the dose curve; as a rule, active = well fitted cell-killing curve with a large enough effect in the repeat runs; inconclusive = weak or mixed curves, or effect the other way; inactive = flat fitted curve, though single readings scatter.
measured quantity: activity change, negative = cytotoxicity

Example molecules with recorded activity change, negative = cytotoxicity:
- molecule: "O=c1[nH]c(=O)c2ccccc2o1"
  activity change, negative = cytotoxicity: "inactive"
- molecule: "CCS(=O)(=O)CCn1c([N+](=O)[O-])cnc1C"
  activity change, negative = cytotoxicity: "inactive"
- molecule: "Cc1nc2ccccc2c(=O)o1"
  activity change, negative = cytotoxicity: "inactive"
- molecule: "CCOC(=O)CCCCCCCCC(=O)OCC"
  activity change, negative = cytotoxicity: "inactive"
- molecule: "C=C(C)[C@@H]1CC[C@@H](C)C[C@@H]1O"
  activity change, negative = cytotoxicity: "inactive"
- molecule: "OC[C@@H](O)[C@H](O)[C@@H](O)[C@@H](O)CO"
  activity change, negative = cytotoxicity: "inactive"
- molecule: "CN(C)CCCNCCC#N"
  activity change, negative = cytotoxicity: "inactive"
- molecule: "Nc1ccc(S(=O)(=O)NC(=O)c2ccccc2)cc1"
  activity change, negative = cytotoxicity: "inactive"
- molecule: "O=C(O)c1c(Cl)ccc(Cl)c1Cl"
  activity change, negative = cytotoxicity: "inactive"
- molecule: "CCOC(=O)CC#N"
  activity change, negative = cytotoxicity: "inactive"

*Q* Consider the molecule shown here: CCCCCCCC/C=C\CCCCCCCC(=O)OC[C@@H](O)[C@H]1OC[C@H](O)[C@H]1O What is its recorded activity change, negative = cytotoxicity?
*A* inactive

*Q* Consider the molecule shown here: O=C(O)c1ccccc1C(=O)OCc1ccccc1 What is its recorded activity change, negative = cytotoxicity?
*A* inactive

*Q* Consider the molecule shown here: CCOc1ccc(NC(=O)OC(C)C)cc1OCC What is its recorded activity change, negative = cytotoxicity?
*A* inactive
